target: nanoKAZ luciferase (Oplophorus gracilirostris, UniProt Q9GV45, A31E/A60N/A81I/F95D/I117V/K70R/L54V/L99Q/M102K/N193R/P142E/Q151K/Q38R/Q45L/V71I/Y165I); construct: luciferase catalytic domain (nanoKAZ, 19 kDa) from the Oplophorus-derived luciferase; host or cells: cell-free: 1-Step Human Coupled IVT Kit, pT7CFE1-based vector; assay: In vitro bioluminescence screening of imidazo[1,2-a]pyrazin-3(7H)-ones with nanoKAZ expressed in vitro (96-well luminometer, 2 h kinetic); format: biochemical; details: Table 1; furimazine = 1
Sequence (Q9GV45 other isoform, or with tags, fused parts or gaps with the stated changes): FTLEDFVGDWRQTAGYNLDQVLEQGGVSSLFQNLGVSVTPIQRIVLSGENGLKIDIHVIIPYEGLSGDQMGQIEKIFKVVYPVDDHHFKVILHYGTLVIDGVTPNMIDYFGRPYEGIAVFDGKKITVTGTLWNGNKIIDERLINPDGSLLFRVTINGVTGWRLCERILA
Listed here: items and their measured V4: area under the curve for two hours, normalized using furimazine (Q-1) as a reference.
property measured: V4: area under the curve for two hours, normalized using furimazine (Q-1) as a reference

# compound, test value
rows = [
    ("O=c1c(Cc2ccccc2F)nc2c(Cc3ccccc3)[nH]c(-c3ccccc3)cn1-2", 0.7),
    ("O=c1c(Cc2ccccc2)nc2c(Cc3ccccc3F)[nH]c(-c3ccccc3)cn1-2", 0.85),
    ("O=c1c(Cc2ccc(O)cc2)nc2c(Cc3ccccc3)[nH]c(-c3ccc(O)cc3)cn1-2 [Q-86, reference compound]", 0.07),
    ("Cc1ccc(Cc2nc3c(Cc4ccccc4Cl)[nH]c(-c4ccccc4)cn-3c2=O)o1", 1.20),
    ("O=c1c(Cc2ccccc2)nc2c(Cc3ccccc3)[nH]c(-c3ccc(O)cc3)cn1-2 [Q-75, reference compound]", 0.11),
    ("Cc1cc(Cc2nc3c(Cc4ccccc4)[nH]c(-c4ccccc4)cn-3c2=O)oc1C", 0.93),
    ("CCc1ccc(Cc2nc3c(Cc4ccccc4)[nH]c(-c4ccccc4F)cn-3c2=O)o1", 1.19),
    ("O=c1c(Cc2ccccc2)nc2c(Cc3cccc(F)c3)[nH]c(-c3ccccc3)cn1-2", 0.92),
]

Every entry's value here was drawn from patent US12612411B1.
